# system_name: DCAF1(1073-1399)_E1398S (WDR domain, Avi/His-tagged) (Homo sapiens, UniProt Q9Y4B6, E1398S)
# Construct: WDR (WD40) domain 1073-1399 with E1398S; Avi and His tags (N-terminal Avi, C-terminal His for SPR; C-terminal Avi-His for TR-FRET), biotinylated by BirA; Sf9 cells
# Sequence (Q9Y4B6 1073-1399 E1398S): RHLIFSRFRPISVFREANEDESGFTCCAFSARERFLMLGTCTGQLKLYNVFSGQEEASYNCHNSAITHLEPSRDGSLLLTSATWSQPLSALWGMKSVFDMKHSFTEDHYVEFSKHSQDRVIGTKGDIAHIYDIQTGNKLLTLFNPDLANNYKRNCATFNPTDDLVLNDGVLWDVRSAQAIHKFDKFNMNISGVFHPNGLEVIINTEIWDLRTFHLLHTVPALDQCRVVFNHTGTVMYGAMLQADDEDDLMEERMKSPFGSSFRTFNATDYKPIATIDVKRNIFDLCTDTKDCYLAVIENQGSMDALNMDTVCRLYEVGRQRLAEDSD
# assay_explanation: fluorescence polarization
measurement_label: pKd
Recall that pKd is obtained by taking minus log10 of the concentration measured in molar.

What pKd value was documented for this compound, Cc1cc(C)n2c1C=C1C=CC(CCC(=O)N3CCN(c4ccc5c(NCCN)nc(C(C)(C)c6ccc(Cl)cc6)nc5c4)CC3)=[N+]1[B-]2(F)F [bodipy labelled ligand] ? 7.16
